- target.system: T1, human B7-H1 expressed on cells (human, UniProt Q9NZQ7 19-290)
- T1 construct: whole, on cells; also called PD-L1; huB7-H1
- T1 sequence (Q9NZQ7 19-290): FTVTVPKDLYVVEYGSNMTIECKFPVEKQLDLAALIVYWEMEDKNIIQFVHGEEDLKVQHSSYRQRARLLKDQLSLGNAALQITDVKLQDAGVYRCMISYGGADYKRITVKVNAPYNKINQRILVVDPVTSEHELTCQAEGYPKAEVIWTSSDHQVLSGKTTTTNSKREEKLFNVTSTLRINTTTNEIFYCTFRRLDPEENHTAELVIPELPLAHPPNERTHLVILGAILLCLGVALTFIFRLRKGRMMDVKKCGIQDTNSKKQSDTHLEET
- protocol.notes: FACS, 1 µg/ml antibody, anti-CD3-activated human T cells
observed.property: geo mean
Lab note: jot down the number only; don't add units.

Examples from the recorded data:
binder	geo mean
2.20A8 (antibody, IgG2, V domains shown, also called mAb 2.20A8) VH: EVQLLESGGGLVQPGGSLRLSCAASGFTFSNYAMSWVRQAPGKGLEWVSAIRGSGGSTYYADSVKGRFTISRDNSKNTLYLQMNSLRAEDTAVYYCAKDLHYDSSGYLDYWGQGTLVTVSS VL: DIQMTQSPSSVSASVGDRVTITCRASQGIRSWLAWYQQKPGKAPKLLIYAISRLQSGVPSRFSGSGSGTDFTLTISSLQPEDFATYYCQQANSFPLTFGGGTKVEIK	41
3.15G8 (antibody, IgG4, V domains shown, also called mAb 3.15G8) VH: EVQLVESGGGLVQPGGSLRLSCAASGFTFSSYWMSWVRQAPGKGLEWVANIKQDGGEKYYVDSVKGRFTISRDNAKNSLFLQMNSLRAEDTAVYYCARVQLYSDYFDYWGQGTLVTVSS VL: DIQMTQSPSSVSASVGDRVTITCRASQGISSWLAWYQQKSGKAPKLLIYAASGLQSGVPSRFSGSGSGTDFTLTISSLQPEDLATYYCQQSHSLPPTFGQGTKVEIK	48
2.7A4 (antibody, IgG2, V domains shown, also called mAb 2.7A4) VH: EVQLVESGGGLVKPGGSLRLSCAASGFTFSTYSMNWVRQAPGKGLEWVSSISSSGDYIYYADSVKGRFTISRDNAKNSLFLQMNSLKAEDTAVYYCARDLVTSMVAFDYWGQGTLVTVSS VL: SYELTQPPSVSVSPGQAARITCSGDALPQKYVFWYQQKSGQAPVLVIYEDSKRPSGIPERFSGSSSGTMATLTISGAQVEDEADYYCYSTDRSGNHRVFGGGTRLTVL	49

Q) Provide geo mean value for the following binder: 3.18G1 (antibody, V domains shown, also called mAb 3.18G1) VH: EVQLLESGGDLVQPGGSLRLSCAASGFTFNSYAMSWVRQAPGKGLEWVSTISGSGGFTFSADSVKGRFTISRDNSKNTLFLQMNSLRVEDSAVYSCAKVLVGFNNGCWDYWGQGTLVTVSS VL: SYVLTQPPSVSVAPGQTARITCGGNNIGSKSVHWYQQKPGQAPVLVVYDDSDRPSGIPERFSGSNSGNTATLTISRVEAGDEADYYCQVWDSSNDHVVFGGGTKLTVL
A) 45
